Origin of measurements: PubChem BioAssay (NCI)

System: SF-539 CNS
protocol.notes: NCI tumour cell line growth inhibition, 48 h; in the data active = GI50 below about 0.43 µM; inactive = the rest
Lab note: assign the record to one of active, inactive

These solved cases illustrate the format of a correct answer.
- compound: "C1CC[N-]CC1.CC(=N\\O)/C(C)=N/O.CC(=N\\O)/C(C)=N/O.OC1[CH-]CCCC1.[Co+2]"
  class.name: "inactive"
- compound: "Cn1cc(-c2ccc3nnc(Sc4ccc5ncccc5c4)n3n2)cn1"
  class.name: "inactive"
- compound: "Cc1nn2c(/C=C3/C(=O)Nc4cc(Cl)ccc43)c(-c3ccccc3)nc2s1"
  class.name: "inactive"
- compound: "Cc1nc2ccc(NC(=O)CCNC(=O)CCCc3ccc(CC(C(=O)O)C(=O)O)cc3)cc2s1"
  class.name: "inactive"

Dear all, I need the recorded test outcome for "CN(C)c1nc2ccccc2c2c1c1c(n2Cc2ccccc2)-c2ccccc2C1=O" , thank you.
inactive

// query: O=P1(S)OC[C@H]2O[C@@H]3[C@H](F)[C@@H]2OP(O)(=S)OC[C@H]2O[C@H]([C@H](F)[C@@H]2O1)n1cnc2c(ncnc21)NC/C=C/CNc1ncnc2c1ncn23 (stereo not given in full)
active

One more compound: "Cc1nc(Nc2ccccn2)sc1C(=O)/C=C/c1ccc(Cl)cc1"
active

Request: COc1ccc(C(O)c2cc3c(N)c(C(=O)Nc4cccc(Cl)c4)sc3nc2C)cc1 (stereo not given)
inactive

Please answer likewise for "C#Cc1nc2ccccc2c(=O)[nH]1"
active

// next record COc1cc(C2c3cc4c(cc3C3OC[C@@H]2C3CO)OCO4)cc(OC)c1OC (stereo not given in full)
inactive

What do we get for "NCCOCCOCCNc1nc(-c2ccc(Cl)cc2)nc(N2CCN(c3ccccn3)CC2)n1" ?
inactive

Also need "c1ccc(-c2nc(N3CCOCC3)c3c4c(sc3n2)CCCCCC4)nc1" , thanks.
inactive

Same for "Cn1cc(C2=C(c3cn(C)c4ccc(Cl)cc34)C(=O)NC2=O)c2ccccc21"
inactive

What do you have for "O=c1cc(N/N=C/c2ccc(F)cc2)c2cc(Cl)ccc2[nH]1" ?
inactive

What would you report for "COc1ccc2[nH]c(O)c(/C=c3/cc4c(c(-c5ccc(F)c(OC)c5)n3)=Nc3ccccc3-4)c2c1" ?
inactive

Now consider "N.N.N.N.N.O=[N+]([O-])[O-].[Co+3].[O-][Cl+3]([O-])([O-])[O-]" and answer again.
inactive

"COc1ncnc(S(=O)(=O)c2ccc(N=C3C(=O)N(CN4CCN(c5cc6c(cc5F)c(=O)c(C(=O)O)cn6C5CC5)CC4)c4ccc(Cl)cc43)cc2)c1OC" , same question.
inactive

Same read-out for "COc1cc(NC(=O)CCSc2nc3ccc(C)cc3c(=O)n2Cc2ccccc2)cc(OC)c1OC" ?
inactive

Then what about the compound "COc1ccc(-c2nc(-c3nc4ccc(F)cc4[nH]3)c3ccccn23)cc1" ?
inactive

Cool, now "O=C(Nc1ccc(-c2nc(-c3cccc(OCCN4CCOCC4)c3)c(-c3ccnc(Br)c3)[nH]2)cc1)c1ccccc1"
inactive
